Value source: the supplement of paper PMC6555819

- Tested on: THRa homodimer (NR concentration 90 nM)
- testMethodNotes: PBM binding z-score (relative to random genomic background probes); higher = stronger binding; sequences stand for … in GC…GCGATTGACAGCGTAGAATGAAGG
propertyName: PBM binding z-score

>>> print(df.to_string())
                             residues  obsvalue
0  CGTCCAAAGTCAGAGAGGTCAGTGAATGCCGAGT     0.954
1  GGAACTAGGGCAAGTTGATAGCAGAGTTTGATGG    -0.214
2  ACTATTAGTTGACTTAGGGGAACCGATACGACGC     0.616

Quick check: PBM binding z-score of "ATCTCTAGGTACGACTCAGTTCAGTGAAGAACGC" ?
0.878

Field entry: "GCTGCTAGATCAACTGATGGTCAGCTAAAGCTCG"
-1.12

Field entry: "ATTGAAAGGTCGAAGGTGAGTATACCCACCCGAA"
0.13

Field entry: "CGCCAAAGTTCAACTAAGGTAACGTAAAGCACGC"
2.11

Field entry: "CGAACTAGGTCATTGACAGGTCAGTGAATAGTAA"
0.924

Field entry: "CCTACTGGGCCAATCAGAGGTCATTGATCATATG"
1.38

Field entry: "AGAATGAGGTTAAGATCAGGGAAACAGAATACAT"
0.768

Field entry: "ATACCAAGGTGATCGTCAGGTCGTTGATACTAAC"
1.76

---

- Tested on: RARa:RXR (NR concentration 270 nM, RXRa partner concentration 90 nM)
- testMethodNotes: PBM binding z-score (relative to random genomic background probes); higher = stronger binding; sequences stand for … in GC…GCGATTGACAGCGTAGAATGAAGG
Quick reference for PBM binding z-score among some sequences

Observe how each entry below is paired with its result.
In [3]: df
Out[3]:
                             residues         propertyname  obsvalue
0  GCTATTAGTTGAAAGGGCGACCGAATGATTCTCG  PBM binding z-score     0.097
1  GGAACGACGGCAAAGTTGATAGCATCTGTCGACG  PBM binding z-score    0.0195
2  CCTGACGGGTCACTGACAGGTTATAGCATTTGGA  PBM binding z-score      4.01
3  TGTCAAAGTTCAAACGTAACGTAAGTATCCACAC  PBM binding z-score       3.8
4  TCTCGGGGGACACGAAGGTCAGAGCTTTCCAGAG  PBM binding z-score      3.29
5  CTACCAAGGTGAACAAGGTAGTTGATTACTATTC  PBM binding z-score     0.456
6  TTACCAAGGTGAAGGTCGTTTATCCCTCTGTAGA  PBM binding z-score      1.65
7  CCTTACGGGTCACTGACAGGTTAAAGCATTTGGA  PBM binding z-score      5.21

Quick check: PBM binding z-score of "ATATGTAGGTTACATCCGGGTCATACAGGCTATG" ?
4.26

Field entry: "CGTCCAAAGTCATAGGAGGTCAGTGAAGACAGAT"
2.86

Field entry: "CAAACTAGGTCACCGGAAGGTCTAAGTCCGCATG"
3.02

Field entry: "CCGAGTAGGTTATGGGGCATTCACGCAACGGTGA"
0.125

Field entry: "CATACAGGGTGAGCTAGGCCAGAGTAGGGACGGC"
-0.0235

Field entry: "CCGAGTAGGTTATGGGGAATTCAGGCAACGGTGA"
0.654
